Molecular target: T1, monkey C5-mmh (monkey, UniProt P01031 19-1676 (human entry), limits assumed)
T1 construct: recombinant, with C-terminal myc-myc-hexahistidine tag
T1 chain: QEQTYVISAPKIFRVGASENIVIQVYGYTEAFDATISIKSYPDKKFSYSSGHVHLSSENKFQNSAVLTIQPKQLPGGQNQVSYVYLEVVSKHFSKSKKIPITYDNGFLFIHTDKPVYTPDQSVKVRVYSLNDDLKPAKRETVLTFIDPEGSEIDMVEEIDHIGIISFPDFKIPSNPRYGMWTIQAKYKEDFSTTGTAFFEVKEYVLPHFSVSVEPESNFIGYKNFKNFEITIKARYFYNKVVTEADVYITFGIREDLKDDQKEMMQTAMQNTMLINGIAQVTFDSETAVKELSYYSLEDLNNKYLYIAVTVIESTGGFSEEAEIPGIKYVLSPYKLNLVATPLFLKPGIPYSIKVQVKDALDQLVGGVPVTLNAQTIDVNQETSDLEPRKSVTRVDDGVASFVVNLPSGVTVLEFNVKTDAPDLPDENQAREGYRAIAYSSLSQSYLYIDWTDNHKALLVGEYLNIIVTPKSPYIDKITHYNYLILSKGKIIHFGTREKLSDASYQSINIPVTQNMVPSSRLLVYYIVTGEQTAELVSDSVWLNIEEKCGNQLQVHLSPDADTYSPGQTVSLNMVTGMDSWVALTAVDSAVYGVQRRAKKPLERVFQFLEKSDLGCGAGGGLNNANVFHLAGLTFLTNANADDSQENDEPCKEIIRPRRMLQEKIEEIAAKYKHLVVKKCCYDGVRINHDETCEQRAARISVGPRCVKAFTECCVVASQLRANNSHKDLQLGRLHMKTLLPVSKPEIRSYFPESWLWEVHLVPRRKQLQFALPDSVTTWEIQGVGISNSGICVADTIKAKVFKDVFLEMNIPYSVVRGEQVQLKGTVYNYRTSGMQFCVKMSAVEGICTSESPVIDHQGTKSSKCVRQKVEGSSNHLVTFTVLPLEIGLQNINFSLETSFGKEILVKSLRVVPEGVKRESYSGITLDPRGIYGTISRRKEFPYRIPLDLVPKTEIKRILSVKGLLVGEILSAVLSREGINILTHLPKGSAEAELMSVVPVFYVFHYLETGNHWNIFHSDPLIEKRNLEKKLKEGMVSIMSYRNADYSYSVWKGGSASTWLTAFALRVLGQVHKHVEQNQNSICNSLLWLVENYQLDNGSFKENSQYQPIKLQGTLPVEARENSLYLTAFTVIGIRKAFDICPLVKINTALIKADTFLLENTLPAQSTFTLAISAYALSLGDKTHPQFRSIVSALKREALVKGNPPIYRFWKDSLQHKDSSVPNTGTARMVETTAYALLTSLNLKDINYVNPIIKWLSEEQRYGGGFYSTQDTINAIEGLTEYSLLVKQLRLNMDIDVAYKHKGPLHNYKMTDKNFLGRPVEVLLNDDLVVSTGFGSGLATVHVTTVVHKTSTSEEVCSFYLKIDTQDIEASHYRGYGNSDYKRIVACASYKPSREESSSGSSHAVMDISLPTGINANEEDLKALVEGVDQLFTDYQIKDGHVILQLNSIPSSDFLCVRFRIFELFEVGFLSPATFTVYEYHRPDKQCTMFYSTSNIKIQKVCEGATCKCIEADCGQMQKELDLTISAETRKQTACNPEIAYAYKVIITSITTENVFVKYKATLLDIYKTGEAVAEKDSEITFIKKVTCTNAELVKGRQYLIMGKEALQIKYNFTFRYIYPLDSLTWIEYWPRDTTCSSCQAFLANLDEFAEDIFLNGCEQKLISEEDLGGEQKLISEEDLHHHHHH
Experiment: SPR (Biacore), mAb captured, dissociation of monkey C5 at pH7.4 vs pH6.0, 37°C
Classes are defined on t½ Ratio pH7.4/pH6.0 with ranges low band (below 2), middle band (2 to below 5), high band (5 or more)

* H4H12168P (antibody, human IgG4, V domains shown, H4H: human IgG4 Fc with S108P hinge mutation) VH: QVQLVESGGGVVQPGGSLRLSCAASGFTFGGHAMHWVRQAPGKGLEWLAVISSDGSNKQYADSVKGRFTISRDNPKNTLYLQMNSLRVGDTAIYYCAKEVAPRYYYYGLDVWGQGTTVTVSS VL: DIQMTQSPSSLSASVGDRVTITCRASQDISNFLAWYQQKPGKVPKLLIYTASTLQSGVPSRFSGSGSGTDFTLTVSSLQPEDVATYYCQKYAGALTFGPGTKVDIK | middle band
* H4H12170P (antibody, human IgG4, V domains shown, H4H: human IgG4 Fc with S108P hinge mutation) VH: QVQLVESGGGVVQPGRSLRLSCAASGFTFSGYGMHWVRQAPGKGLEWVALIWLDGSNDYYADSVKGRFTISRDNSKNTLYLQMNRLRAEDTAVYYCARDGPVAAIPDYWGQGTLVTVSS VL: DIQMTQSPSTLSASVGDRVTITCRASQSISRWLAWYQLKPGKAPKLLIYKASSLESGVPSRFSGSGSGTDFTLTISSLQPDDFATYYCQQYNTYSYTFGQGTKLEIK | middle band
* H4H11686N (antibody, human IgG4, V domains shown, tested with H4H prefix (human IgG4 Fc with S108P hinge mutation); also called H2M11686N) VH: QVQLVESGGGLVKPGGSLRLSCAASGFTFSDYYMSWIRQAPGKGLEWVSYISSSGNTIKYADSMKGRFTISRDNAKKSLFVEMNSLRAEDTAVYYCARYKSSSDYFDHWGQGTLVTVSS VL: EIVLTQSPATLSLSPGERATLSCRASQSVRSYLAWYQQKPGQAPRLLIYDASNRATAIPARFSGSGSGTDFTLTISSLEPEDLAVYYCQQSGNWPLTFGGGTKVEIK | low band
* H4H11683N (antibody, human IgG4, V domains shown, tested with H4H prefix (human IgG4 Fc with S108P hinge mutation); variable regions follow the numerical identifier; also called H2M11683N) VH: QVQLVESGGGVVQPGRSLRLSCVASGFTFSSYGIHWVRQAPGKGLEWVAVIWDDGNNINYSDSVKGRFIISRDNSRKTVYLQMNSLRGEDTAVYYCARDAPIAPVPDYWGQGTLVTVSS VL: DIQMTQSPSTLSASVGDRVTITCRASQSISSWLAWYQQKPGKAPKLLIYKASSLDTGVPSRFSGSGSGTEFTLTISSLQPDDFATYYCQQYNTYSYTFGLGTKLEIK | low band
* H4H12167P (antibody, human IgG4, V domains shown, H4H: human IgG4 Fc with S108P hinge mutation) VH: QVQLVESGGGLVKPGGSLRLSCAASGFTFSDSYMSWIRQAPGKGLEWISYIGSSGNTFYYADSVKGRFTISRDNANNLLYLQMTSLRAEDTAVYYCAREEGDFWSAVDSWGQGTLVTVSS VL: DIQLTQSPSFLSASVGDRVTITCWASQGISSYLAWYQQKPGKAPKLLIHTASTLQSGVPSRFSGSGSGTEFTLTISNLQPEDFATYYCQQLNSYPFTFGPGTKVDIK | middle band
* H4H12164P (antibody, human IgG4, V domains shown, H4H: human IgG4 Fc with S108P hinge mutation) VH: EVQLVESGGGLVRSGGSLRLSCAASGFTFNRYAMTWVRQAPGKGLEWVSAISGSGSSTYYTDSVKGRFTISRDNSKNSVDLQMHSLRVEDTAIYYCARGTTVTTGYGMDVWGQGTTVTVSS VL: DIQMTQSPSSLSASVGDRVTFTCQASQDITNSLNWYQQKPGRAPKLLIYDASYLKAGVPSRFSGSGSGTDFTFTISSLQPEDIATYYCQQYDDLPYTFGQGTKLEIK | low band
* H4H12171P (antibody, human IgG4, V domains shown, H4H: human IgG4 Fc with S108P hinge mutation) VH: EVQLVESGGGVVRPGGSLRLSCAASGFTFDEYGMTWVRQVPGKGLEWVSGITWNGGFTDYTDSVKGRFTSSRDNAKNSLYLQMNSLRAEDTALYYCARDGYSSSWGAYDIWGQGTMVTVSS VL: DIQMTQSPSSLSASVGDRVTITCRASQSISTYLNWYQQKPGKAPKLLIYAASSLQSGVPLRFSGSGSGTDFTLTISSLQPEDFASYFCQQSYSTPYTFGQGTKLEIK | middle band
* H4H12161P (antibody, human IgG4, V domains shown, H4H: human IgG4 Fc with S108P hinge mutation) VH: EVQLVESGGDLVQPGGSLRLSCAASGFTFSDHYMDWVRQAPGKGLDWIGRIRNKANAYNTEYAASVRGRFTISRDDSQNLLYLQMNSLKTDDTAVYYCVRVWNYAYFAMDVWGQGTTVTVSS VL: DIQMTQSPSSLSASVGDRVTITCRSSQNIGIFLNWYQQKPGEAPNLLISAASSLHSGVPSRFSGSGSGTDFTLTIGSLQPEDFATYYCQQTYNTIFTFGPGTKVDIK | high band
* H4H12159P (antibody, human IgG4, V domains shown, H4H: human IgG4 Fc with S108P hinge mutation) VH: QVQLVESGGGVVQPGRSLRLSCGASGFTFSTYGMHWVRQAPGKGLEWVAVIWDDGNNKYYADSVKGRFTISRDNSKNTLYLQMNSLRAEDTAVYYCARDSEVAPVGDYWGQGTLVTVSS VL: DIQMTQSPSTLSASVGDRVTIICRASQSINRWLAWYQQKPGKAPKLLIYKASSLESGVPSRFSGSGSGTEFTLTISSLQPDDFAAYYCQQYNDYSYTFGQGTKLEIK | high band
* H4H12163P (antibody, human IgG4, V domains shown, H4H: human IgG4 Fc with S108P hinge mutation) VH: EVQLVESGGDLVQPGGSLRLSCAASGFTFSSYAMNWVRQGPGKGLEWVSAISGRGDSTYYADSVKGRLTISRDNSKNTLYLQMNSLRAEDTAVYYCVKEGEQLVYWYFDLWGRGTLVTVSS VL: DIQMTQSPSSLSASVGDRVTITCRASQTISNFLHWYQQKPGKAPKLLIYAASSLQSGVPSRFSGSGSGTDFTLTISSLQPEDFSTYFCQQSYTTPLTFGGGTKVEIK | middle band
